- test-system: hMC4-R (Homo sapiens (Human), UniProt P32245)
- Sequence (P32245 whole entry): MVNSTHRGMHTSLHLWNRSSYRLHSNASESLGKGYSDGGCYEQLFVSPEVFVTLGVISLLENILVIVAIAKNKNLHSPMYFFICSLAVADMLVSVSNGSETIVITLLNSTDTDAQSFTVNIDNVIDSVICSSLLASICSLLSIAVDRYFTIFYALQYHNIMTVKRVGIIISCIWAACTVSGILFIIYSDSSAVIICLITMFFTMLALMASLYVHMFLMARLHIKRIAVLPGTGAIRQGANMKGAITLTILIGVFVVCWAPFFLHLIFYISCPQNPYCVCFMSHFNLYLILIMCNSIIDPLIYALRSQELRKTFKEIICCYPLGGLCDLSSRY
- procedure-summary: High and low density hMC4-R functional assay (cAMP, HEK293-T-REx-MC4-R cells)
- Format: cell-based
- experimental-parameters: 10 ng/mL Doxycycline (high density hMC4-R system)
Positions of bridges follow the written chain, without caps; N, C: chain ends. Non-standard residues stand in square brackets, D forms with d. Residues, ends and D or L forms follow the SMILES beside them. dPhe(4-CN) = N#Cc1ccc(C[C@@H](N)C(=O)O)cc1; Orn = NCCC[C@H](N)C(=O)O
Below, each entry is listed alongside its reported EC50.

| compound | EC50, pM |
| --- | --- |
| CC(=O)N[C@@H](CCCNC(=N)N)C(=O)N[C@H]1CCC(=O)NCCC[C@@H](C(=O)O)NC(=O)[C@H](Cc2c[nH]c3ccccc23)NC(=O)[C@H](CCCNC(=N)N)NC(=O)[C@@H](Cc2cc(F)c(F)c(F)c2)NC(=O)[C@H](CCC(N)=O)NC1=O | 100 |
| CC(=O)N[C@@H](CCCNC(=N)N)C(=O)N[C@H]1CCC(=O)NCCC[C@@H](C(N)=O)NC(=O)[C@H](Cc2c[nH]c3ccccc23)NC(=O)[C@H](CCCNC(=N)N)NC(=O)[C@@H](Cc2ccc(C#N)cc2)NC(=O)[C@H](C)NC1=O [Example 41] (Ac-REA[dPhe(4-CN)]RW[Orn]-NH2; lactam 2-7) | 800 |
